Give measured pIC50 for each item. Keep answers brief.
tested on: human primary T-cells, IL-2 stimulated proliferation (JAK-1 and JAK-3 dependent; reported as JAK3 activity); experiment: Human primary T-cell proliferation stimulated by IL-2 (Example 3); type: cell-based; settings: Homo sapiens, T-cell, tested under conditions described in Example 3 (IL-2 stimulated human primary T-cell proliferation); read-out: ability to inhibit JAK3 activity, IC50 range (Table V)
pIC50: −log10 of the molar value. Counter-ions that a name gives are not always drawn.

Asked: Consider the compound Cc1cc(Nc2ncc(C)c(Nc3ccc4oc(=O)[nH]c4c3)n2)cc(C(F)F)c1 and give its measured pIC50.
Given back: > 6.30

Asked: Consider the compound Cc1cnc(Nc2cc(Cl)cc(C#N)c2)nc1Nc1ccc2oc(=O)[nH]c2c1 and give its measured pIC50.
Given back: > 6.30

Asked: Consider the compound Cc1cnc(Nc2ccc(OCC(C)C)cc2)nc1Nc1ccc2oc(=O)[nH]c2c1 and give its measured pIC50.
Given back: > 6.30

Asked: Consider the compound Cc1cnc(Nc2cc(C(F)(F)F)cc(C(F)(F)F)c2)nc1Nc1ccc2oc(=O)[nH]c2c1 and give its measured pIC50.
Given back: > 6.30

Asked: Consider the compound Cc1cnc(Nc2cccc(OC(F)(F)F)c2)nc1Nc1ccc2oc(=O)[nH]c2c1 [Compound I-106, trifluoroacetate salt] and give its measured pIC50.
Given back: > 6.30

Asked: Consider the compound CCOc1ccc(Nc2ncc(C)c(Nc3ccc4oc(=O)[nH]c4c3)n2)cc1C(F)(F)F and give its measured pIC50.
Given back: 5.30 to 6.30

Asked: Consider the compound CCN(CC)C1CCN(C(=O)c2ccc(Nc3ncc(C)c(Nc4ccc5oc(=O)[nH]c5c4)n3)cc2)C1 (centres unmarked) and give its measured pIC50.
Given back: > 6.30

Asked: Consider the compound Cc1cnc(Nc2ccc(C(N)=O)c(Cl)c2)nc1Nc1ccc2oc(=O)[nH]c2c1 [Compound I-141, trifluoroacetic acid salt] and give its measured pIC50.
Given back: > 6.30

Asked: Consider the compound COC(=O)c1ccc(Nc2ncc(C)c(Nc3ccc4oc(=O)[nH]c4c3)n2)cc1C and give its measured pIC50.
Given back: > 6.30

Asked: Consider the compound Cc1cnc(Nc2ccc(-c3ccncc3)c(F)c2)nc1Nc1ccc2oc(=O)[nH]c2c1 and give its measured pIC50.
Given back: 5.30 to 6.30

Asked: Consider the compound Cc1cnc(Nc2cnc(C3CC4CCC(C3)N4CC3CC3)c(C)c2)nc1Nc1ccc2oc(=O)[nH]c2c1 (centres unmarked) and give its measured pIC50.
Given back: > 6.30

Asked: Consider the compound CCNC(=O)NC1CCN(c2ccc(Nc3ncc(C)c(Nc4ccc5oc(=O)[nH]c5c4)n3)cn2)C1 (centres unmarked) and give its measured pIC50.
Given back: > 6.30

Asked: Consider the compound Cc1cnc(Nc2ccc(N3CCN(C)CC3)nc2)nc1Nc1cc(F)c2oc(=O)[nH]c2c1 and give its measured pIC50.
Given back: > 6.30

Asked: Consider the compound Cc1cc(Nc2ncc(F)c(Nc3ccc4oc(=O)[nH]c4c3)n2)cnc1N1CCN(C)CC1 and give its measured pIC50.
Given back: > 6.30

Asked: Consider the compound COc1cc(Nc2ncc(C)c(Nc3ccc4oc(=O)[nH]c4c3)n2)cc(C(=O)N2CCCC2)c1 and give its measured pIC50.
Given back: < 5.00

Asked: Consider the compound Cc1cnc(Nc2ccc3c(c2)OC(C)(C)C(=O)N3)nc1Nc1ccc2oc(=O)[nH]c2c1 and give its measured pIC50.
Given back: > 6.30

Asked: Consider the compound Cc1cnc(Nc2ccc3c(cnn3C)c2)nc1Nc1ccc2oc(=O)[nH]c2c1 and give its measured pIC50.
Given back: > 6.30

Asked: Consider the compound Cc1cnc(Nc2ccc(N3CCOCC3)nc2)nc1Nc1cc(C)c2oc(=O)[nH]c2c1 and give its measured pIC50.
Given back: > 6.30

Asked: Consider the compound CCOc1cc(Nc2ncc(C)c(Nc3ccc4oc(=O)[nH]c4c3)n2)ccc1Cl and give its measured pIC50.
Given back: > 6.30

Asked: Consider the compound Cc1cnc(Nc2cc(C(C)N3CCC3)cc(C(F)(F)F)c2)nc1Nc1ccc2oc(=O)[nH]c2c1 (centres unmarked) and give its measured pIC50.
Given back: > 6.30

Asked: Consider the compound Cc1cnc(Nc2cc(OC3CCC3)cc(C(F)(F)F)c2)nc1Nc1ccc2oc(=O)[nH]c2c1 and give its measured pIC50.
Given back: 5.30 to 6.30

Asked: Consider the compound Cc1cnc(Nc2cnc(N3CCN(C)CC3)c(C)c2)nc1Nc1ccc2oc(=O)[nH]c2c1 and give its measured pIC50.
Given back: > 6.30

Asked: Consider the compound Cc1cnc(Nc2ccc(C(=O)N3CCN(CC(C)C)CC3)nc2)nc1Nc1ccc2oc(=O)[nH]c2c1 and give its measured pIC50.
Given back: > 6.30

Asked: Consider the compound CSc1ccc(Nc2ncc(C)c(Nc3ccc4oc(=O)[nH]c4c3)n2)cc1C(F)(F)F and give its measured pIC50.
Given back: > 6.30

Asked: Consider the compound CCC(=O)n1c(=O)oc2ccc(Nc3nc(Nc4ccc(C(N)=O)cc4)ncc3C)cc21 and give its measured pIC50.
Given back: > 6.30

Asked: Consider the compound Cc1cnc(Nc2cccnc2)nc1Nc1ccc2oc(=O)[nH]c2c1 and give its measured pIC50.
Given back: 5.30 to 6.30

Asked: Consider the compound Cc1cnc(Nc2ccc(N3CCC(C)(C)CC3)nc2)nc1Nc1ccc2oc(=O)[nH]c2c1 and give its measured pIC50.
Given back: > 6.30

Asked: Consider the compound Cc1ccc(Nc2ncc(C)c(Nc3ccc4oc(=O)[nH]c4c3)n2)cc1-c1cccnc1 and give its measured pIC50.
Given back: > 6.30

Asked: Consider the compound Cc1cccc(Nc2ncc(C)c(Nc3ccc4oc(=O)[nH]c4c3)n2)n1 and give its measured pIC50.
Given back: 5.30 to 6.30

Asked: Consider the compound Cc1cnc(Nc2ccc(OC(F)(F)F)c(C(F)(F)F)c2)nc1Nc1ccc2oc(=O)[nH]c2c1 and give its measured pIC50.
Given back: > 6.30

Asked: Consider the compound Cc1cnc(Nc2cc(Cl)cc(Br)c2)nc1Nc1ccc2oc(=O)[nH]c2c1 and give its measured pIC50.
Given back: < 5.00

Asked: Consider the compound Cc1cnc(Nc2cc(C(C)NC3CCC3)cc(C(F)(F)F)c2)nc1Nc1ccc2oc(=O)[nH]c2c1 (centres unmarked) and give its measured pIC50.
Given back: > 6.30

###

tested on: human primary T-cells, IL-2 stimulated proliferation (JAK-1 and JAK-3 dependent; reported as JAK3 activity); test: Human primary T-cell proliferation stimulated by IL-2 (Example 3); format: cell-based; conditions: Homo sapiens, T-cell, tested under conditions described in Example 3 (IL-2 stimulated human primary T-cell proliferation); read-out: ability to inhibit JAK3 activity, IC50 range (Table V)
pIC50: −log10 of the molar value.
Give measured pIC50 for each item. Keep answers brief.

Asked: Consider the compound Cc1cnc(Nc2ccc(OCC3CCCCC3)c(C(F)(F)F)c2)nc1Nc1ccc2oc(=O)[nH]c2c1 and give its measured pIC50.
Given back: < 5.00

Asked: Consider the compound Cc1cnc(Nc2ccc3c(c2)OC(F)(F)O3)nc1Nc1ccc2oc(=O)[nH]c2c1 and give its measured pIC50.
Given back: > 6.30

Asked: Consider the compound Cc1cc(CF)cc(Nc2ncc(C)c(Nc3ccc4oc(=O)[nH]c4c3)n2)c1 and give its measured pIC50.
Given back: > 6.30

Asked: Consider the compound Cc1cnc(Nc2cccc(C(=O)N3CCOCC3)c2)nc1Nc1ccc2oc(=O)[nH]c2c1 and give its measured pIC50.
Given back: > 6.30

Asked: Consider the compound CCNC(=O)c1ccc(Nc2ncc(C)c(Nc3ccc4oc(=O)[nH]c4c3)n2)cc1C and give its measured pIC50.
Given back: > 6.30

Asked: Consider the compound Cc1cnc(Nc2ccc(C(=O)NC3CCC3)nc2)nc1Nc1ccc2oc(=O)[nH]c2c1 and give its measured pIC50.
Given back: > 6.30

Asked: Consider the compound Cc1cnc(Nc2cnc(C3NCC4CCCCC43)c(Cl)c2)nc1Nc1ccc2oc(=O)[nH]c2c1 (centres unmarked) and give its measured pIC50.
Given back: > 6.30

Asked: Consider the compound Cc1cnc(Nc2cccc(Cl)c2)nc1Nc1ccc2oc(=O)[nH]c2c1 and give its measured pIC50.
Given back: > 6.30

###

tested on: human primary T-cells, IL-2 stimulated proliferation (JAK-1 and JAK-3 dependent; reported as JAK3 activity); assay: Human primary T-cell proliferation stimulated by IL-2 (Example 3); type: cell-based; details: Homo sapiens, T-cell, tested under conditions described in Example 3 (IL-2 stimulated human primary T-cell proliferation); read-out: ability to inhibit JAK3 activity, IC50 range (Table V)
Structures can show the parent of a compound that is named as a salt.
quantity name: IC50

Asked: Consider the compound Cc1cnc(Nc2cccc(NS(C)(=O)=O)c2)nc1Nc1ccc2[nH]c(=O)[nH]c2c1 and give its measured IC50.
Given back: < 500 nM

Asked: Consider the compound Cc1cnc(Nc2ccc(NC3CCN(C)CC3)nc2)nc1Nc1ccc2oc(=O)[nH]c2c1 and give its measured IC50.
Given back: < 500 nM

Asked: Consider the compound COc1cc(Nc2ncc(C)c(Nc3cc(F)c4oc(=O)[nH]c4c3)n2)cc(C)c1OC and give its measured IC50.
Given back: < 500 nM

Asked: Consider the compound Cc1ccc(Nc2ncc(C)c(Nc3ccc4oc(=O)[nH]c4c3)n2)c(F)c1 and give its measured IC50.
Given back: < 500 nM

Asked: Consider the compound Cc1cnc(Nc2ccc(N3CCN[C@@H](C)C3)nc2)nc1Nc1ccc2oc(=O)[nH]c2c1 and give its measured IC50.
Given back: < 500 nM

Asked: Consider the compound Cc1cnc(Nc2ccc(-c3cccnc3)c(F)c2)nc1Nc1ccc2oc(=O)[nH]c2c1 [Compound I-505, trifluoroacetic acid salt] and give its measured IC50.
Given back: > 10000 nM

Asked: Consider the compound Cc1cnc(Nc2ccc3c(c2)CN(C)C3)nc1Nc1ccc2oc(=O)[nH]c2c1 and give its measured IC50.
Given back: < 500 nM

Asked: Consider the compound COc1ccc(C(F)(F)F)cc1Nc1ncc(C)c(Nc2ccc3oc(=O)[nH]c3c2)n1 and give its measured IC50.
Given back: 500 to 5000 nM

FYI, the data here is from patent US10005767B2.
